B1: OR4K15 (parent)
chain: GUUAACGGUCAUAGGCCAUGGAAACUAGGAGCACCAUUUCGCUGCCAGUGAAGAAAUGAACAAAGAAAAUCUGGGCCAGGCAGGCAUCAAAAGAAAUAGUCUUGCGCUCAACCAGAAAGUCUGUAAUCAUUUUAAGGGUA

Variants of: B1
Assay: self-cleavage, relative activity (ratio to wild type); higher = more cleavage; in vitro, sequencing; the parent is a self-cleaving ribozyme
Provide the recorded self-cleavage for the entries that follow.
Keep the answer to the number alone.

Exercise: Could you tell me which self-cleavage is on file for A13U A62U ?
Key: 1.05

Exercise: Could you tell me which self-cleavage is on file for G80A A82C ?
Key: 0.14

Exercise: Could you tell me which self-cleavage is on file for G1U U139C ?
Key: 0.98

Exercise: Could you tell me which self-cleavage is on file for A89C A126U ?
Key: 0.86

Exercise: Could you tell me which self-cleavage is on file for A33G U130C ?
Key: 0.66

Exercise: Could you tell me which self-cleavage is on file for A30G A51G ?
Key: 1.07

Exercise: Could you tell me which self-cleavage is on file for U12C U72C ?
Key: 0.18

Exercise: Could you tell me which self-cleavage is on file for C34U A94G ?
Key: 1.55

Exercise: Could you tell me which self-cleavage is on file for G15C A24G ?
Key: 0.88

Exercise: Could you tell me which self-cleavage is on file for G75C U130C ?
Key: 0.08

Exercise: Could you tell me which self-cleavage is on file for A13G G41A ?
Key: 0.97

Exercise: Could you tell me which self-cleavage is on file for A60C C71U ?
Key: 0.04

Exercise: Could you tell me which self-cleavage is on file for A22C A94U ?
Key: 2.06

Exercise: Could you tell me which self-cleavage is on file for A82C A135G ?
Key: 0.15

Exercise: Could you tell me which self-cleavage is on file for U70A U139A ?
Key: 0.23

Exercise: Could you tell me which self-cleavage is on file for A86U U139A ?
Key: 1.53

Exercise: Could you tell me which self-cleavage is on file for A33U A68G ?
Key: 1.28

Exercise: Could you tell me which self-cleavage is on file for G7A U12C ?
Key: 1.33

Exercise: Could you tell me which self-cleavage is on file for A36G U37G ?
Key: 1.45

Exercise: Could you tell me which self-cleavage is on file for A4G A92G ?
Key: 1.18

Exercise: Could you tell me which self-cleavage is on file for A27U U87A ?
Key: 1.48

Exercise: Could you tell me which self-cleavage is on file for A23G A30G ?
Key: 1.1

Exercise: Could you tell me which self-cleavage is on file for A59U U122C ?
Key: 0.69

Exercise: Could you tell me which self-cleavage is on file for U120C U130A ?
Key: 0.71

Exercise: Could you tell me which self-cleavage is on file for U2C A24U ?
Key: 1.45

Exercise: Could you tell me which self-cleavage is on file for A22U A36U ?
Key: 1.53

Exercise: Could you tell me which self-cleavage is on file for U57A U100C ?
Key: 2.19

Exercise: Could you tell me which self-cleavage is on file for A24G G65U ?
Key: 1.3

Exercise: Could you tell me which self-cleavage is on file for A54G U122C ?
Key: 1

Exercise: Could you tell me which self-cleavage is on file for C77U U130C ?
Key: 1.61

Exercise: Could you tell me which self-cleavage is on file for U3C G28U ?
Key: 2.64

Exercise: Could you tell me which self-cleavage is on file for U19A A59G ?
Key: 1.12

Exercise: Could you tell me which self-cleavage is on file for A11G G137A ?
Key: 0.53

Exercise: Could you tell me which self-cleavage is on file for G20U U72C ?
Key: 0.14

Exercise: Could you tell me which self-cleavage is on file for A55U A114U ?
Key: 0.03

Exercise: Could you tell me which self-cleavage is on file for C25U A111G ?
Key: 0.09

Exercise: Could you tell me which self-cleavage is on file for G75A U87C ?
Key: 0.14

Exercise: Could you tell me which self-cleavage is on file for A30C A33G ?
Key: 1.9

Exercise: Could you tell me which self-cleavage is on file for U102A A110G ?
Key: 0.1

Exercise: Could you tell me which self-cleavage is on file for U102C A111U ?
Key: 0.04

Exercise: Could you tell me which self-cleavage is on file for A59G U122C ?
Key: 1.1

Exercise: Could you tell me which self-cleavage is on file for A96G A114U ?
Key: 0.07

Exercise: Could you tell me which self-cleavage is on file for U87C U102G ?
Key: 0.27

Exercise: Could you tell me which self-cleavage is on file for A66G A95U ?
Key: 0.2

Exercise: Could you tell me which self-cleavage is on file for G28A U130C ?
Key: 1.2

Exercise: Could you tell me which self-cleavage is on file for U97A U122C ?
Key: 1.83

Exercise: Could you tell me which self-cleavage is on file for U2G A69U ?
Key: 0.94

Exercise: Could you tell me which self-cleavage is on file for A51G A129C ?
Key: 0.98

Exercise: Could you tell me which self-cleavage is on file for U26G A63G ?
Key: 2.09

Exercise: Could you tell me which self-cleavage is on file for G21A A94G ?
Key: 1.81

Exercise: Could you tell me which self-cleavage is on file for A63G A129G ?
Key: 0.9

Exercise: Could you tell me which self-cleavage is on file for U12G A33G ?
Key: 1.04

Exercise: Could you tell me which self-cleavage is on file for A64U A95G ?
Key: 1.95

Exercise: Could you tell me which self-cleavage is on file for A69G A86G ?
Key: 1.24

Exercise: Could you tell me which self-cleavage is on file for A56U A110U ?
Key: 1

Exercise: Could you tell me which self-cleavage is on file for A64U A126U ?
Key: 1.2

Exercise: Could you tell me which self-cleavage is on file for A24G U131C ?
Key: 1.17

Exercise: Could you tell me which self-cleavage is on file for U19A A22G ?
Key: 1.09

Exercise: Could you tell me which self-cleavage is on file for C25U A86C ?
Key: 0.72

Exercise: Could you tell me which self-cleavage is on file for A33C A126G ?
Key: 1.8

Exercise: Could you tell me which self-cleavage is on file for A13G A94G ?
Key: 0.6

Exercise: Could you tell me which self-cleavage is on file for U108C U124A ?
Key: 0.01

Exercise: Could you tell me which self-cleavage is on file for A47G U130C ?
Key: 0.33

Exercise: Could you tell me which self-cleavage is on file for U49C U72A ?
Key: 0.15

Exercise: Could you tell me which self-cleavage is on file for A24G U72G ?
Key: 0.26

Exercise: Could you tell me which self-cleavage is on file for A66G A89U ?
Key: 1.97

Exercise: Could you tell me which self-cleavage is on file for C42G A51G ?
Key: 1.47

Exercise: Could you tell me which self-cleavage is on file for A63G A68G ?
Key: 1.41

Exercise: Could you tell me which self-cleavage is on file for A68C ?
Key: 1.73

Exercise: Could you tell me which self-cleavage is on file for A96G U124A ?
Key: 0.94

Exercise: Could you tell me which self-cleavage is on file for A62G A98G ?
Key: 0.4

Exercise: Could you tell me which self-cleavage is on file for A33G G115U ?
Key: 0.06

Exercise: Could you tell me which self-cleavage is on file for U37C A59C ?
Key: 1.08

Exercise: Could you tell me which self-cleavage is on file for A64G U120A ?
Key: 2.01

Exercise: Could you tell me which self-cleavage is on file for G8A A95G ?
Key: 1.52

Exercise: Could you tell me which self-cleavage is on file for A92G U139A ?
Key: 2.12

Exercise: Could you tell me which self-cleavage is on file for G93U G123A ?
Key: 0.77

Exercise: Could you tell me which self-cleavage is on file for U49G A60G ?
Key: 0.64

Exercise: Could you tell me which self-cleavage is on file for C17U U87A ?
Key: 1.37

Exercise: Could you tell me which self-cleavage is on file for A23U A67G ?
Key: 1.73

Exercise: Could you tell me which self-cleavage is on file for A23G C61G ?
Key: 1.12
